- Test system: mitochondrial ATP production on non-small cell lung carcinoma cell lines NCI-H460
- run.description: Mitochondrial ATP analysis (Cell Titer Glo) in NCI-H460 cells
- Type: cell-based
- experimental.conditions: 1-hour incubation, with sodium iodoacetate (100 μM), concentration inhibiting 50% of mitochondrial ATP production, read-out: IC50 (mito ATP)
property.measured: log10 IC50 (log10 of the value in nM)
Each number you see is log10 of IC50, and the unit inside the log is nM.

Examples with answers:
compound	log10 IC50
COc1cc(C(O)COc2ccc(-c3coc(-c4ccc(OCC(O)c5cc(OC)c(OC)c(OC)c5)cc4)n3)cc2)cc(OC)c1OC (single isomer, unassigned) [Compound I-21]	3.42
COc1ccc(C(O)C(C)(C)Oc2ccc(-c3nsc(-c4ccc(OC(C)(C)C(O)c5ccc(OC)c(OC)c5)cc4)n3)cc2)cc1OC (single isomer, unassigned)	1.74
COc1ccc(C(O)C(C)(C)Oc2ccc(-c3coc(-c4ccc(OC(C)(C)C(O)c5ccc(OC)c(OC)c5)cc4)n3)cc2)cc1OC (single isomer, unassigned) [Compound I-18]	1.80

Below are some compounds; for each one, tell me its log10 IC50.
1. COc1ccc(C(O)C(C)(C)Oc2ccc(-c3nc(-c4ccc(OC(C)(C)C(O)c5ccc(OC)c(OC)c5)cc4)c(C)o3)cc2)cc1OC (single isomer, unassigned)
2. COc1ccc(C(O)C(C)Oc2ccc(-c3csc(-c4ccc(OC(C)C(O)c5ccc(OC)c(OC)c5)cc4)n3)cc2)cc1OC (single isomer, unassigned) [Compound I-29]
3. COc1ccc(C(O)C(C)Oc2ccc(-c3csc(-c4ccc(OC(C)C(O)c5ccc(OC)c(OC)c5)cc4)n3)cc2)cc1OC (single isomer, unassigned) [Compound I-32]
4. COc1ccc(C(O)C(C)(C)Oc2ccc(-c3coc(-c4ccc(OC(C)(C)C(O)c5ccc(OC)c(OC)c5)cc4)n3)cc2)cc1OC (single isomer, unassigned) [Compound I-19]
5. COc1ccc(C(O)C(C)(C)Oc2ccc(-c3c[nH]c(-c4ccc(OC(C)(C)C(O)c5ccc(OC)c(OC)c5)cc4)n3)cc2)cc1OC (single isomer, unassigned)

1: 1.08; 2: 2.20; 3: 1.68; 4: 2.39; 5: 2.88
